Experiment: in vitro
Settings: human, liver microsomes
QUANTITY_KIND: remaining at 1 h (%)
Quick note: give the figure in %, leave out the unit.

Q: Please give the measured remaining at 1 h for this molecule: COc1c(Nc2cc(C)[nH]n2)nc(Sc2ccc(S(=O)(=O)Cc3cccc([N+](=O)[O-])c3F)cc2F)nc1N1CCOCC1
Result: 1.7

* * *

Assay: in vitro
Settings: human, plasma
QUANTITY_KIND: remaining at 10 min (%)
Give the value in % but do not write % after it.

Q: Requested field: remaining at 10 min. Item: COc1c(Nc2cc(C)[nH]n2)nc(Sc2ccc(S(=O)(=O)Cc3cccc([N+](=O)[O-])c3F)cc2F)nc1N1CCOCC1
Result: 101
